System: T47D cells
Assay: Clonogenic assay (Example 5, FIG. 8), T47D
Assay type: cell-based
Details: Homo sapiens, 48 hours, then fresh medium, read-out: IC50 of TMZ alone or in the named combination
result type: IC50 (µM)
One number for each entry, in µM.

Which IC50 is reported with T47D cells for this entry: Cn1nnc2c(C(N)=O)ncn2c1=O [TMZ, Temozolomide] ?
334
